- system: Cytochrome P450 1A2 (Homo sapiens) (UniProt P05177)
- Sequence (P05177 whole entry, looked up): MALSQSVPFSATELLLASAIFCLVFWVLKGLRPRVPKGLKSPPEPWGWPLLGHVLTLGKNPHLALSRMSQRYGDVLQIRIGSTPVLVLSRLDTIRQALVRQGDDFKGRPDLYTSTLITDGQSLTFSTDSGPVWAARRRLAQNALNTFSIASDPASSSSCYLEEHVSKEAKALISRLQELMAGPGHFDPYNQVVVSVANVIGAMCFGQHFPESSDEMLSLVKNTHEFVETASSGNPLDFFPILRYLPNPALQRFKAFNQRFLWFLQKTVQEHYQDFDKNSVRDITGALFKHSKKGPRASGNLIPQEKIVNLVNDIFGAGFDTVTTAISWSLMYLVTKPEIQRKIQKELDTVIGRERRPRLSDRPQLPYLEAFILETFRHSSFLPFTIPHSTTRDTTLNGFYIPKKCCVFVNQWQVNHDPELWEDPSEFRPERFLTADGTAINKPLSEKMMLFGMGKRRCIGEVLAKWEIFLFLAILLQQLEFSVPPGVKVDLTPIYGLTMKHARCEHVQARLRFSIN
- experiment_description: Cytochrome panel assay with activity outcomes
- condition_info: recombinant CYP, pro-luciferin dealkylation, luminescence, p450-cyp1a2; series mostly up to 57.1 µM
In all, about 16,000 compounds went through this assay and about 5,700 (36%) were called active. Inconclusive results (about 24%) are left out. Calls follow the shape of the dose curve; as a rule, active = well fitted curve in the direction sought with a large enough effect; inconclusive = small, poorly fitted or top-dose-only effect, or effect the other way; inactive = no such curve, though single readings can be large or run the other way. The list shows a part of the results.
// classify into active, inactive

N[C@H](Cn1ccc(=O)[nH]c1=O)C(=O)O    inactive
O=C(c1ccncc1)N1CCC2(CC1)CN(Cc1ccccc1)C2    inactive
N[C@H](CCCCCP(=O)(O)O)C(=O)O    inactive

Data request: Please let me know the test result on file for CNC(=S)NC1CC2CCCC(C1)N2CC(C)C (stereo not drawn) .
Data returned: inactive

Data request: What was the test verdict on O=[N+]([O-])O[C@H]1CO[C@H]2[C@H]1OC[C@@H]2O[N+](=O)[O-] ?
Data returned: inactive

Data request: Record lookup: outcome of this test for CCCCCCCCCCCCCC(=O)O[C@H]1[C@@H](C)[C@@]2(O)[C@@H](C=C(CO)C[C@]3(O)C(=O)C(C)=C[C@@H]23)C2C(C)(C)[C@]21OC(C)=O (stereo partly drawn) ?
Data returned: inactive

Data request: Can you look up the reported call for CNC[C@H](O)c1ccc(O)c(OC)c1 for me?
Data returned: inactive

Data request: Check the results log: what was the call for CC(NCc1ccc(Cl)cc1)C(O)c1ccccc1 (stereo not drawn) ?
Data returned: active

Data request: Recorded call for O=P(c1ccccc1)(c1ccccc1)N1CC2(CC2)CC(O)(c2ccccc2)C1 (stereo not drawn) ?
Data returned: inactive

Data request: Entry O=c1c(O)c(-c2cc(O)c(O)c(O)c2)oc2cc(O)cc(O)c12 : call = ?
Data returned: active

Data request: Record request — test call for COc1ccc(C(=O)c2c(C)n(CCN3CCOCC3)c3cc(I)ccc23)cc1
Data returned: active

Data request: Just curious, what result did Nc1ncnc2c1ncn2[C@@H]1O[C@@H](COP(=O)(O)CP(=O)(O)OP(=O)(O)O)[C@H](O)[C@@H]1O get here?
Data returned: inactive

Data request: Name the outcome recorded for CC(N)Cc1ccccc1Sc1ccc(O)cc1 (stereo not drawn) in the assay.
Data returned: inactive

* * *

- system: Cytochrome P450 1A2 (Homo sapiens)
- experiment_description: Cytochrome panel assay with activity outcomes; as to activity, negative = inhibition: % is scaled to controls: 0 for no effect and ±100 for the full control effect
- condition_info: recombinant CYP, pro-luciferin dealkylation, luminescence, p450-cyp1a2; series mostly up to 57.1 µM
The whole screen tested about 16,000 compounds, of which about 5,700 (36%) were called active. Inconclusive results (about 24%) are left out. The list shows a part of the results.
readout_kind: activity, negative = inhibition

Sample records with activity, negative = inhibition:
CN[C@H](Cc1ccccc1)c1cccc(OC)c1O    -11.6% [at 11.4 µM] (inactive)
CC(=O)O[C@H]1CC[C@@]2(C)[C@@H](CC[C@H]3[C@H]2CC(=O)[C@@]2(C)[C@@H]3C[C@H]3CC(C)=CC(=O)[C@H]32)C1    -8.97% [at 2.29 µM] (inactive)
N#CCCCC[N+]12CN3CN(CN(C3)C1)C2    15% [at 2.29 µM] (inactive)
N=C(N)c1ccc(-c2ccc(-c3ccc(C(=N)N)cc3)o2)cc1    -1.35% [at 11.4 µM] (inactive)

Could I get activity, negative = inhibition for every one of these entries?
1. COc1cc2cc(c1Cl)N(C)C(=O)C[C@H](OC(=O)C(C)C)[C@]1(C)O[C@@H]1[C@@H](C)[C@H]1C[C@](O)(NC(=O)O1)[C@@H](OC)/C=C\C=C(\C)C2
2. O=C(NCP(=O)(O)O)c1cccnc1
3. c1ccc(CCN2CCOCC2)nc1
4. CC(C)[C@]1(O)[C@@H](OC(=O)c2ccc[nH]2)[C@]2(O)[C@@]3(C)C[C@@]4(O)O[C@@]5([C@H](O)[C@@H](C)CC[C@]35O)[C@]2(O)[C@]41C
5. O=[As](O)(O)c1ccc(N=Nc2ccc(O)cc2)cc1

Data returned:
1: -7.72% [at 11.4 µM] (inactive); 2: -11.9% [at 11.4 µM] (inactive); 3: -3% [at 2.29 µM] (inactive); 4: -17.2% [at 2.29 µM] (inactive); 5: -14.5% [at 11.4 µM] (inactive)

Source listed as PubChem BioAssay AID1851.
